# target entity: fMet-Leu-Phe receptor (Homo sapiens, UniProt P21462)
# Sequence (P21462 whole entry): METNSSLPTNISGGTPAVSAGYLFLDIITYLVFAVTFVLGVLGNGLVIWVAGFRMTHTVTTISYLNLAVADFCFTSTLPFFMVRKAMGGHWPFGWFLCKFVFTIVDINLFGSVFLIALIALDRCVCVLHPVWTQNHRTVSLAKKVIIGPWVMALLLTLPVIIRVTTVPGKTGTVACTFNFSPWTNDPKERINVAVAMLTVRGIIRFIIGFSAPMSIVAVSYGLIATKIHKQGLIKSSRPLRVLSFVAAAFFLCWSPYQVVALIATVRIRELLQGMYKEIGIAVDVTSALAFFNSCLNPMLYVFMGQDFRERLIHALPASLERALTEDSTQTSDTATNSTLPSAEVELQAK
// returns No unless EC50 is strictly below 30 nM, in which case Yes

> print(dat)
                                    compound                             target.entity  group.label
 1  COc1cc(F)c(-n2cc(-c3ccc(C(F)(F)F)cc3)nc2NC(=O)c2ccc(OC(F)F)cc2)c(F)c1 [WO2022076764, Example 6]  fMet-Leu-Phe receptor (Homo sapiens, UniProt P21462)           No
 2  COc1cc(F)c(-n2cc(-c3cccc(Cl)c3)nc2NC(=O)c2ccc(OC(F)F)cc2)c(F)c1 [WO2022076764, Example 12]  fMet-Leu-Phe receptor (Homo sapiens, UniProt P21462)          Yes
 3  COc1cc(F)c(-n2cc(-c3ccc(Cl)cc3)nc2NC(=O)c2ccc(OC(F)F)cc2)c(F)c1 [WO2022076764, Example 11]  fMet-Leu-Phe receptor (Homo sapiens, UniProt P21462)          Yes
 4  COc1cc(F)c(-n2cc(C(F)(F)F)nc2NC(=O)c2ccc(OC(F)F)cc2)c(F)c1 [WO2022076764, Example 43]  fMet-Leu-Phe receptor (Homo sapiens, UniProt P21462)          Yes
 5  COc1cc(F)c(-n2cc(C(=O)N3CCN(C)CC3)nc2NC(=O)c2ccc(OC(F)F)cc2)c(F)c1 [WO2022076764, Example 55]  fMet-Leu-Phe receptor (Homo sapiens, UniProt P21462)           No
 6  COc1cc(F)c(-n2cc(C(=O)NCc3ccncc3)nc2NC(=O)c2ccc(OC(F)F)cc2)c(F)c1 [WO2022076764, Example 48]  fMet-Leu-Phe receptor (Homo sapiens, UniProt P21462)           No
 7  COc1cc(F)c(-n2cc(-c3ccc(C#N)cc3)nc2NC(=O)c2ccc(OC(F)F)cc2)c(F)c1 [WO2022076764, Example 16]  fMet-Leu-Phe receptor (Homo sapiens, UniProt P21462)          Yes
 8  COc1ccc(-n2cc(C(=O)N3CCNCC3)nc2NC(=O)c2ccc(OC(F)F)cc2)cc1 [WO2022076764, Example 45]  fMet-Leu-Phe receptor (Homo sapiens, UniProt P21462)          Yes
 9  COc1cc(F)c(-n2cc(C(=O)Nc3cn[nH]c3)nc2NC(=O)c2ccc(OC(F)F)cc2)c(F)c1 [WO2022076764, Example 62]  fMet-Leu-Phe receptor (Homo sapiens, UniProt P21462)           No
10  COc1cc(F)c(-n2cc(-c3ccnc(Cl)c3)nc2NC(=O)c2ccc(OC(F)F)cc2)c(F)c1 [WO2022076764, Example 34]  fMet-Leu-Phe receptor (Homo sapiens, UniProt P21462)          Yes
